Target: T1, UNK ZnF1-6 (called full-length) (human, UniProt Q9C0B0 30-357)
T1 sequence: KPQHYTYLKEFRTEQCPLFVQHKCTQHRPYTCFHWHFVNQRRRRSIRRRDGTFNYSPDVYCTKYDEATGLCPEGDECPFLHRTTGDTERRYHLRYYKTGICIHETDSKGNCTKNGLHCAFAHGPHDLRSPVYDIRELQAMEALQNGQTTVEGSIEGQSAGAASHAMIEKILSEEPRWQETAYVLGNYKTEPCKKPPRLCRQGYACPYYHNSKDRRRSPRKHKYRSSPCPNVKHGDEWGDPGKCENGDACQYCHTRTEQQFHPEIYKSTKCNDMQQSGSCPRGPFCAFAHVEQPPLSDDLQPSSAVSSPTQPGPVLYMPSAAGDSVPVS
Test: nsRBNS (natural sequence RNA bind-n-seq); RBNS binding buffer (assumed for nsRBNS): 25 mM Tris pH 7.5, 150 mM KCl, 3 mM MgCl2, 0.01% Triton X-100, 500 ug/ml BSA, 20 U/ml SUPERase-In, 4 C; UNK is unkempt and MSI1 is Musashi-1; names of the RNAs are library labels; protein concentration not given here; high values mean tight binding
Over roughly 5,800 sequences, “enrichment r” has its median near 0.68; the highest 2% begin near 11. The sample holds the highest values, similar sequences and a random draw of the others, so the mix is not that of the screen.

binder	binding signal / enrichment R
chr12:909583:909684:+|3pUTR|ENSG00000060237|unk|FALSE|bound_elsewhere (ssRNA) RNA: GGGAGUUCUACAGUCCGACGAUCUAGCUCUGUCCUUUACUUAUUGAGACACUUUAACUUUUUCCUUUGUAUUUCCAUUGUAUUAGAUAAAUAAAUGUGAAUGUAAAAUUGUAUAAAUUACUGUACUUGAAUACUUCUGUUUCCCAACAGAGGAUUGAGCAUCA	12.7
chr19:58083837:58084684:-|three_prime_utr|ENSG00000121413|control|control|control (ssRNA) RNA: GGGAGUUCUACAGUCCGACGAUCGCUCGCAUCCGAGGGGAGCCGCCGGAUGUGGAAGAAGACUCGGCUUUCCUGCAGCCAUUUAGUGCCGCCCCAUGCUAGGUUAUUUGACAUUGUGCAGUGUAGAGUUGCCUUAAAGUGCGUCAACAGAGGAUUGAGCAUCA	0.832
chr2:24000049:24000165:+|3pUTR|ENSG00000173960|unk|FALSE|unique (ssRNA) RNA: GGGAGUUCUACAGUCCGACGAUCGUAGCAUAUGACUGGAAACUAUAUUCAGUGCACUUUCUCCAAAAGACUACCCAGAAAAAUAGACUUAUUUUCAAAUACCAGUUAUCAAGAUAUAUUAAAUAGCUGUAUUGUUUAGAAUCUCAACAGAGGAUUGAGCAUCA	3.33

Values were extracted from paper PMC12136788.
